assay: Saturated solubility of fluticasone propionate in HFO-1234ze(E) with ethanol; assay type: physicochemical; settings: HFO-1234ze(E) propellant with ethanol, organic solvent or mixture, thermodynamic from solid, saturated solubility in HFO-1234ze(E), ethanol 5% by weight, no additional excipients
VALUE_TYPE: solubility (µg/mL)
Give the number; µg/mL is assumed, so skip it.

Task item: Which value of solubility has been reported for CCC(=O)O[C@]1(C(=O)SCF)[C@H](C)C[C@H]2[C@@H]3C[C@H](F)C4=CC(=O)C=C[C@]4(C)[C@@]3(F)[C@@H](O)C[C@@]21C [fluticasone propionate] in the records?
Reply: 135

Origin of the recorded values: patent US20260102344A1
